Test: Toxicity liver stage against HepG2, at 10uM
Assay type: cell-based
Design: test concentration 10 uM, cell line HepG2-A16-CD81EGFP
Details: human, HepG2-A16-CD81EGFP cells; read-out: INHIBITION
experimental_endpoint: cytotoxicity at 10 µM (%)
Value expressed in %; do not type the unit.

> print(dat)
                                   molecule  measurement.unit  reported
1     CC(C)N1CCC2(CCCN(C(=O)c3cncn3C)C2)CC1                 %   -0.0499
2  CCOCC1CN(C(=O)N2CCCC2)Cc2cnn(CC)c21 (centres undefined)                 %     -77.5
3       CN(Cc1cnn(C)c1)C(=O)c1ccc(=O)n(C)n1                 %     -7.87
4  COc1cc(CN2C[C@H](OC)[C@]3(CCCO3)C2)ccc1F                 %     -7.61

Query: Quote cytotoxicity at 10 µM reported for "COc1ccc2cc(NC(=O)CCCNc3ncccn3)cnc2c1" please.
Result: -50.5

Query: Quote cytotoxicity at 10 µM reported for Cc1nccn1CC1CCCN1S(=O)(=O)Cc1cccc(C#N)c1 (centres undefined) please.
Result: -20.7

Query: Quote cytotoxicity at 10 µM reported for "Cc1cc(S(=O)(=O)Nc2cccc(OC(F)F)c2)sc1C(=O)O" please.
Result: -0.229

Query: Quote cytotoxicity at 10 µM reported for "CNC(=O)CC1CCN(C(=O)NCc2cn3c(C)cccc3n2)CC1" please.
Result: 3.88

Query: Quote cytotoxicity at 10 µM reported for CNC(=O)c1cccc(CCNC2CCSc3ccccc32)c1 (centres undefined) please.
Result: 3.42

---

Assay: Toxicity liver stage against HepG2, at 10uM
Format: cell-based
Set-up: test concentration 10 uM, cell line HepG2-A16-CD81EGFP
Conditions: human, HepG2-A16-CD81EGFP cells; read-out: INHIBITION
In this section we review reported cytotoxicity at 10 µM values for a set of compounds.
Value expressed in %; do not type the unit.

> print(dat)
                                   compound  experimental.endpoint  measurement.unit  reported
1  CCN(Cc1ccncc1)C(=O)c1cc(C)c(C)c(S(N)(=O)=O)c1  cytotoxicity at 10 µM                 %     -2.33
2  CCn1cc(CN2C[C@@H]3CCCN3C[C@@H]2CCSC)c(C)n1  cytotoxicity at 10 µM                 %      3.29

Query: Quote cytotoxicity at 10 µM reported for COC(=O)CNC(=O)CC1COc2ccc(C(=O)N(C)C)cc2N1C (configuration not stated) please.
Result: -8.8

Query: Quote cytotoxicity at 10 µM reported for "CCC[C@H]1CN(S(=O)(=O)c2ccccc2)C[C@@H]1N" please.
Result: 1.35

---

Assay: Toxicity liver stage against HepG2, at 10uM
Assay type: cell-based
Parameters: test concentration 10 uM, cell line HepG2-A16-CD81EGFP
Settings: human, HepG2-A16-CD81EGFP cells; read-out: INHIBITION
In this section we review reported cytotoxicity at 10 µM values for a set of compounds.
Value expressed in %; do not type the unit.

> print(dat)
                                   compound  reported
1  Cc1noc(C)c1CN1CC2(CCN(C(=O)c3cscn3)CC2)CC1=O     -8.86
2    CC(C)(NC(=O)c1ccc(-c2ccccc2F)s1)C(N)=O      12.7
3          CNC(=O)CN(C)C(=O)Cc1csc(C(C)C)n1     -5.07

Query: Quote cytotoxicity at 10 µM reported for Cn1cc(C2=NOC(C(=O)NC3(c4ccccc4F)CCCC3)C2)cn1 (stereo not drawn) please.
Result: -0.269

Query: Quote cytotoxicity at 10 µM reported for "Cn1ccnc1-c1noc(NCc2ccc(Br)cc2)n1" please.
Result: -4.32

Query: Quote cytotoxicity at 10 µM reported for "CN1CCCn2c(nc(CNS(=O)(=O)C3CC3)cc2=O)C1" please.
Result: 5.92

Query: Quote cytotoxicity at 10 µM reported for Cc1ccc(C(NC(=O)CCNC(=O)c2ccoc2)C(F)(F)F)cc1 (stereo not drawn) please.
Result: 9.49

Query: Quote cytotoxicity at 10 µM reported for "Cc1cccc(CN2C[C@@H]3CC[C@H]2CN(Cc2[nH]cnc2C)C3)n1" please.
Result: -3.43

Query: Quote cytotoxicity at 10 µM reported for "CCc1ccccc1-c1cc(C)nc(N)n1" please.
Result: 1.12

---

Experiment: Toxicity liver stage against HepG2, at 10uM
Format: cell-based
Design: test concentration 10 uM, cell line HepG2-A16-CD81EGFP
Conditions: human, HepG2-A16-CD81EGFP cells; read-out: INHIBITION
experimental_endpoint: cytotoxicity at 10 µM (%)
Value expressed in %; do not type the unit.

> print(dat)
                                   compound  reported
1  CC(C)CN1C(=O)c2ccc(C(=O)NCCc3c[nH]cn3)cc2C1=O      9.66
2  CCC(=O)Nc1ccc(N2CCC(OC)CC2)c(C(F)(F)F)c1      5.72
3  CC(=O)N1CCN(C(=O)C2CCN(c3cccnn3)C2)CC1 (stereo not drawn)     -17.6
4       Cc1oncc1C(=O)NCc1ccnc(OCC(F)(F)F)c1     -3.39
5  C[C@@H]1CN(C(=O)C2CCS(=O)(=O)CC2)C[C@@]1(O)C1CC1      3.99

Pending compound:
Query: Quote cytotoxicity at 10 µM reported for c1cnn(CCN2CCOC(Cn3cccn3)C2)c1 (stereo not drawn) please.
Result: -10.3

---

Assay: Toxicity liver stage against HepG2, at 10uM
Format: cell-based
Design: test concentration 10 uM, cell line HepG2-A16-CD81EGFP
Settings: human, HepG2-A16-CD81EGFP cells; read-out: INHIBITION
experimental_endpoint: cytotoxicity at 10 µM (%)
Value expressed in %; do not type the unit.

Some solved entries appear below for comparison.
> print(dat)
                                   molecule  reported
1   CC(C)Oc1ccc(CNC(=O)NCC(C)(C)C(N)=O)cc1F     -24.8
2  CCS(=O)(=O)NC[C@]12COC[C@H]1CN(Cc1sccc1C)C2     -75.2
3  O=C(C1CC1)N1C[C@@H](F)[C@@H](OCc2nc3ccccc3[nH]2)C1   -0.0342

Query: Quote cytotoxicity at 10 µM reported for CC(O)CN1CCC(CN(C)C(=O)NC2CC2)CC1 (centres undefined) please.
Result: 5.55

---

Experiment: Toxicity liver stage against HepG2, at 10uM
Type: cell-based
Design: test concentration 10 uM, cell line HepG2-A16-CD81EGFP
Details: human, HepG2-A16-CD81EGFP cells; read-out: INHIBITION
experimental_endpoint: cytotoxicity at 10 µM (%)
Value expressed in %; do not type the unit.

Some solved entries appear below for comparison.
> print(dat)
                                   molecule  reported
1  O=C(Nc1ccc(-n2ccnc2)c(F)c1)C1CCN(C(=O)C2CC2)CC1      1.21
2  O=C(c1ccc(Cl)cc1)N1CCn2c(nn(-c3cccc(Cl)c3)c2=O)C1      5.84
3  Cc1ccc(NC(=O)c2cc(S(=O)(=O)N3CCCCC3)c[nH]2)cc1F      1.26

Query: Quote cytotoxicity at 10 µM reported for O=C(c1ccccc1)N1CC2(CCNC2)OCc2ccccc21 (centres undefined) please.
Result: 13

Query: Quote cytotoxicity at 10 µM reported for "CNC(=O)[C@H]1C[C@H]2CN(C(=O)Nc3ccc(F)cc3)C[C@@H]1O2" please.
Result: 3.28

Query: Quote cytotoxicity at 10 µM reported for N#Cc1ccc(F)c(CN2CCCC2Cn2cccn2)c1 (centres undefined) please.
Result: -7.69

---

In this section we review reported cytotoxicity at 10 µM values for a set of molecules.
Assay: Toxicity liver stage against HepG2, at 10uM
Type: cell-based
Design: test concentration 10 uM, cell line HepG2-A16-CD81EGFP
Conditions: human, HepG2-A16-CD81EGFP cells; read-out: INHIBITION
I'd appreciate it if you included the unit after the number.

Some solved entries appear below for comparison.
> print(dat)
                                   molecule  reported
1  CCOCC(O)CN1CCN(C(=O)c2cc(F)cc(F)c2)CC1 (stereo not drawn)      8.1%
2  Cc1cccc(Nc2nccnc2C2CCCN(CC(=O)N(C)C)C2)n1 (stereo not drawn)    -3.03%

Query: Quote cytotoxicity at 10 µM reported for COCC1c2nnn(CC3CC3)c2CCN1C(=O)c1cccn1C (stereo not drawn) please.
Result: -133%
